# measurement_context: 333.15 K; 100.5 kPa; Liquid; Vibrating tube method
measured_attribute: mass density (kg/m3)
Please reply with the bare figure in kg/m3 and do not write the unit itself.

* CCCCCCn1cc[n+](C)c1C.O=S(=O)([N-]S(=O)(=O)C(F)(F)F)C(F)(F)F | 1326.3
* CCn1cc[n+](C)c1C.O=S(=O)([N-]S(=O)(=O)C(F)(F)F)C(F)(F)F | 1457.7
* CCCCn1cc[n+](C)c1C.O=S(=O)([N-]S(=O)(=O)C(F)(F)F)C(F)(F)F | 1386.9

// next entry
Enquiry: I'd like to know its mass density. The compound in question is "CCC[n+]1ccn(C)c1C.O=S(=O)([N-]S(=O)(=O)C(F)(F)F)C(F)(F)F"
Return: 1421.7

====

# measurement_context: 323.15 K; 100.5 kPa; Liquid; Vibrating tube method
measured_attribute: mass density (kg/m3)
Please reply with the bare figure in kg/m3 and do not write the unit itself.

* CCn1cc[n+](C)c1C.O=S(=O)([N-]S(=O)(=O)C(F)(F)F)C(F)(F)F | 1467.3
* CCCCCCn1cc[n+](C)c1C.O=S(=O)([N-]S(=O)(=O)C(F)(F)F)C(F)(F)F | 1335.2
* CCCCn1cc[n+](C)c1C.O=S(=O)([N-]S(=O)(=O)C(F)(F)F)C(F)(F)F | 1396

// next entry
Enquiry: I'd like to know its mass density. The compound in question is "CCC[n+]1ccn(C)c1C.O=S(=O)([N-]S(=O)(=O)C(F)(F)F)C(F)(F)F"
Return: 1431.2

====

# measurement_context: 293.15 K; 100.5 kPa; Liquid; Vibrating tube method
As shown below, each of these compounds has a reported mass density value.
Please reply with the bare figure in kg/m3 and do not write the unit itself.

Enquiry: I'd like to know its mass density. The compound in question is "CCCCn1cc[n+](C)c1C.O=S(=O)([N-]S(=O)(=O)C(F)(F)F)C(F)(F)F"
Return: 1424

Enquiry: I'd like to know its mass density. The compound in question is "CCC[n+]1ccn(C)c1C.O=S(=O)([N-]S(=O)(=O)C(F)(F)F)C(F)(F)F"
Return: 1460

Enquiry: I'd like to know its mass density. The compound in question is "CCn1cc[n+](C)c1C.O=S(=O)([N-]S(=O)(=O)C(F)(F)F)C(F)(F)F"
Return: 1496.4

Enquiry: I'd like to know its mass density. The compound in question is "CCCCCCn1cc[n+](C)c1C.O=S(=O)([N-]S(=O)(=O)C(F)(F)F)C(F)(F)F"
Return: 1362.2

====

# measurement_context: 353.15 K; 100.5 kPa; Liquid; Vibrating tube method
measured_attribute: mass density (kg/m3)
Please reply with the bare figure in kg/m3 and do not write the unit itself.

Enquiry: I'd like to know its mass density. The compound in question is "CCC[n+]1ccn(C)c1C.O=S(=O)([N-]S(=O)(=O)C(F)(F)F)C(F)(F)F"
Return: 1403

Enquiry: I'd like to know its mass density. The compound in question is "CCCCCCn1cc[n+](C)c1C.O=S(=O)([N-]S(=O)(=O)C(F)(F)F)C(F)(F)F"
Return: 1308.7

Enquiry: I'd like to know its mass density. The compound in question is "CCn1cc[n+](C)c1C.O=S(=O)([N-]S(=O)(=O)C(F)(F)F)C(F)(F)F"
Return: 1438.8

Enquiry: I'd like to know its mass density. The compound in question is "CCCCn1cc[n+](C)c1C.O=S(=O)([N-]S(=O)(=O)C(F)(F)F)C(F)(F)F"
Return: 1368.7
